system: UACC-62 melanoma; experiment: NCI tumour cell line growth inhibition, 48 h
Property Label: TGI

Known results for compounds:
| Compound | Result |
| --- | --- |
| CCNC(=O)Nc1cccc(C)n1 | > 100 µM |
| CC(C)(CN)CN | > 100 µM |
| CC1=C(C)C(=O)c2c(cc3ccc4ccccc4n23)C1=O | > 100 µM |
| Cc1ccc(N=Nc2c(C)nn(C(=O)CC(=O)Nc3ccccc3)c2C)cc1C | > 100 µM |

GET /values?item= `Nc1ccn(CCOC(=O)c2ccccc2)c(=O)n1` &system= UACC-62 melanoma returns TGI: > 100 µM

GET /values?item= CC1(C)OP23(NC(=O)OC2(C(F)(F)F)c2ccccc2O3)OC1(C)C (centres undefined) &system= UACC-62 melanoma returns TGI: > 100 µM

GET /values?item= `CSc1c(C(=O)Nc2ccccc2)c(N)nn1-c1ccccc1` &system= UACC-62 melanoma returns TGI: > 100 µM

GET /values?item= N/N=C(\C(=O)Nc1c(Cl)cc([N+](=O)[O-])cc1Cl)C(c1cnc2ccc([N+](=O)[O-])cc2n1)[N+](=O)[O-] (centres undefined) &system= UACC-62 melanoma returns TGI: > 100 µM

GET /values?item= C=C1CC2(OC1=O)C(=O)N(CCCCCCCN1C(=O)C3(CC(=C)C(=O)O3)c3ccccc31)c1ccccc12 (centres undefined) &system= UACC-62 melanoma returns TGI: 4.82 µM

GET /values?item= NCCC(N)C(=O)O (centres undefined) &system= UACC-62 melanoma returns TGI: > 100 µM

GET /values?item= `C=CCn1c2c(c3ccccc3c1=O)C(=O)c1ccccc1-2` &system= UACC-62 melanoma returns TGI: > 100 µM

GET /values?item= `N#CC1=C2Sc3ccccc3N2[C@H](c2ccccc2)[C@H]2COC(=O)[C@@H]12` &system= UACC-62 melanoma returns TGI: > 100 µM

GET /values?item= `N=C(N)SCCON1C(=O)c2ccccc2C1=O` &system= UACC-62 melanoma returns TGI: > 100 µM

----------
tested on: CAKI-1 renal; assay: NCI tumour cell line growth inhibition, 48 h
Recorded log10(TGI) for the following compounds
Annotation: log10 of TGI, µM basis.

| Compound | log10(TGI) |
| --- | --- |
| O=C(Nc1ccccc1)O/N=C(/CBr)c1ccccc1 | 1.50 |
| COc1ccc2c(c1)/C(=C\c1c(C)nc3sc(C)cn13)C(=O)N2C | 0.64 |
| N#CC1=C2Sc3ccccc3N2[C@H](c2ccccc2)[C@H]2COC(=O)[C@@H]12 | 1.72 |
| COC(=O)C12Oc3ccc(-c4ccc5c(c4O)C(=O)C4=CCC(C)C(O)C4(C(=O)OC)O5)c(O)c3C(=O)C1=CCC(C)C2O (stereo not drawn) | 0.67 |
| CCCCCc1cc(OC(=O)c2c(O)cc(OC)cc2CCCCC)cc(O)c1C(=O)O | 1.54 |
| COC(=O)/C=C\Sc1ccn(/C=C\C(=O)OC)c(=S)n1 | 1.50 |
| COc1ccc2cc(C(=O)/C=C/c3cc(OC)c(OC)c(OC)c3)ccc2c1 | 1.45 |

GET /values?item= `COc1cc2c3cc1Oc1c(O)c(OC)cc4c1[C@H](Cc1ccc(cc1)Oc1cc(ccc1O)C[C@H]3N(C)CC2)N(C)CC4` &system= CAKI-1 renal returns log10(TGI): 1.94

----------
Recorded TGI for the following molecules
tested on: OVCAR-5 ovarian; test: NCI tumour cell line growth inhibition, 48 h

Known results for molecules:
| Molecule | Tgt | TGI |
| --- | --- | --- |
| CC(=O)Nc1ccc2c(c1)c(C1=C(c3cn(C)c4ccccc34)C(=O)NC1=O)cn2C | OVCAR-5 ovarian | > 25 µM |
| CC1OC(OCC2OC(Oc3c(-c4ccc(O)cc4)oc4cc(O)cc(O)c4c3=O)C(OC3OCC(O)(CO)C3O)C(O)C2O)C(O)C(O)C1O (stereo not given) | OVCAR-5 ovarian | > 100 µM |
| COc1cc2c(cc1OC)C(=O)/C(=C/c1cccc(OCC(=O)c3ccccc3)c1)C2 | OVCAR-5 ovarian | > 100 µM |
| CC(C)/C(Cl)=N/OC(=O)Nc1ccc(F)c(Cl)c1 | OVCAR-5 ovarian | 34.6 µM |

In plain terms, CCC(CCCN)Nc1cc(OC)cc2cccnc12 (stereo not given) has a documented TGI of > 100 µM

----------
Recorded TGI for the following molecules
test system: UACC-257 melanoma; assay: NCI tumour cell line growth inhibition, 48 h
Output spec: scalar in µM, unitless text.

Known results for molecules:
| Molecule | TGI [µM] |
| --- | --- |
| C=C1C(=O)O[C@H]2[C@H]1CC/C(COC(=O)c1cc3cc(F)ccc3[nH]1)=C\CC[C@@]1(C)O[C@@H]21 | 4.26 |
| CC1=C(C(=O)Nc2c(C)cccc2C)C(c2ccc3c(c2)OCO3)C(C(=O)Nc2c(C)cccc2C)=C(C)N1 | 32.3 |
| Cn1c(=O)nc2n(-c3ccc(Cl)cc3)c3ccc(Cl)cc3nc-2c1=O | 14.5 |

In plain terms, `COc1cc2c(cc1C[N+](C)(C)CSc1ccccc1)-c1ccccc1CC2` has a documented TGI of 12.3

In plain terms, CNC(=O)c1cc(OC2CCC(NC(=O)Nc3ccc(Cl)c(C(F)(F)F)c3)CC2)ccn1 (stereo not drawn) has a documented TGI of 20.3

----------
test system: HL-60(TB) leukemia; experiment: NCI tumour cell line growth inhibition, 48 h
If the reported TGI equals or exceeds 20 µM, assign 1.0. If not, assign 0.0.

Past entries and their recorded results:
| Compound | Label Class |
| --- | --- |
| COc1ccc2c(c1)OC(c1cccnc1)C(c1ccccc1)C2=O (stereo unspecified) | 1.0 |
| CC[C@H](C)N(CCN)C(=O)c1cc2ccccc2c(-c2ccccc2Cl)n1 | 1.0 |
| C=C1C(=O)O[C@H]2[C@H]1CC/C(COC(=O)c1cc3cc(F)ccc3[nH]1)=C\CC[C@@]1(C)O[C@@H]21 | 0.0 |
| CCc1cccc(C(C)C)c1NC(=O)C(=O)C(Cc1nc2ccccc2[nH]c1=O)C(=O)OC (stereo unspecified) | 1.0 |
| CN1CC2=C(OC(N)=C(C#N)C2c2cccs2)/C(=C/c2cccs2)C1 (stereo unspecified) | 0.0 |
| O=C(CSc1nc2ccccc2[nH]1)Nc1ccc(-c2nc3ccccc3s2)c(Cl)c1 | 1.0 |

Is it the case that `COc1ccc2cc(C(=O)/C=C/c3cc(OC)c(OC)c(OC)c3)ccc2c1` has TGI reaching or exceeding 20 µM? 1.0

Is it the case that `COc1cc(/C(C#N)=C/c2ccc3c(c2OC)OCO3)cc2c1OCO2` has TGI reaching or exceeding 20 µM? 0.0

Is it the case that CCN1CC(C)Cn2c(=O)[nH]c3cc(Br)cc1c32 (stereo unspecified) has TGI reaching or exceeding 20 µM? 1.0

Is it the case that `CC(C)Oc1c(-c2c(OC(C)C)c(=O)c2=O)c(=O)c1=O` has TGI reaching or exceeding 20 µM? 1.0

Is it the case that `O=[N+]([O-])c1ccc(C(c2c[nH]c3ccccc23)c2c[nH]c3ccccc23)cc1` has TGI reaching or exceeding 20 µM? 1.0

----------
system: MOLT-4 leukemia; experiment: NCI tumour cell line growth inhibition, 48 h
Property Label: TGI

Known results for molecules:
| Molecule | Result |
| --- | --- |
| O=[N+]([O-])c1ccc(C(c2c[nH]c3ccccc23)c2c[nH]c3ccccc23)cc1 | 40.9 µM |
| CC1=C(C(=O)Nc2c(C)cccc2C)C(c2ccc3c(c2)OCO3)C(C(=O)Nc2c(C)cccc2C)=C(C)N1 | 61.5 µM |
| CC(=O)NNc1nc(C)c(C(/C=C/c2ccc3c(c2)OCO3)=N/Nc2ccccc2)s1 | > 100 µM |
| O=c1[nH]nc(Cc2ccccc2)n1/N=C/c1c[nH]c2ccccc12 | > 100 µM |
| Cc1ccc2[nH]cc(-c3nc(-c4c[nH]c5ncccc45)cs3)c2c1 | > 100 µM |

# input for lookup
GET /values?item= CC(=O)OC[C@H]1O[C@@H](O[C@H]2[C@H](OC(C)=O)C=CO[C@@H]2COC(C)=O)C(OC(C)=O)[C@H]2OC(C)(C)O[C@H]21 (some centres undefined) &system= MOLT-4 leukemia returns TGI: > 100 µM

----------
tested on: CAKI-1 renal; assay: NCI tumour cell line growth inhibition, 48 h; in the data active = GI50 below about 0.43 µM; inactive = the rest
A correct response names exactly one class from active, inactive

Would you mind telling me which call this test gave `COc1ccc(Cl)cc1Nc1nc(C(F)(F)F)ccc1C(=O)N/N=C/c1c(Cl)cccc1Cl` ? inactive

----------
tested on: NCI-H460 lung; test: NCI tumour cell line growth inhibition, 48 h
Recorded TGI for the following compounds
Output spec: scalar in µM, unitless text.

| Compound | TGI (µM) |
| --- | --- |
| O=[N+]([O-])c1cccc(-c2csc(N=Nc3c(O)[nH]c4ccccc34)n2)c1 | 31.8 |
| O=C(CCCCCCSc1nc(-c2ccccc2)cc(-c2ccc(Cl)cc2)n1)NO | 10.2 |
| O=C1C(Br)=CC2([N+](=O)[O-])CCNc3c(O)c4c5c(c3C2=C1Br)=NCCC=5C=N4 (stereo not given) | 12.1 |

In plain terms, `CCCCCc1cc(OC(=O)c2c(O)cc(OC)cc2CCCCC)cc(O)c1C(=O)O` has a documented TGI of 31.3
